Molecular target: T1, human melanocortin-4 receptor (hMC4-R) (human, UniProt P32245 1-332)
T1 construct: whole, on cells; membranes prepared from hMC4-R cells were used; also called Melanocortin Receptor 4
T1 sequence (P32245 whole entry): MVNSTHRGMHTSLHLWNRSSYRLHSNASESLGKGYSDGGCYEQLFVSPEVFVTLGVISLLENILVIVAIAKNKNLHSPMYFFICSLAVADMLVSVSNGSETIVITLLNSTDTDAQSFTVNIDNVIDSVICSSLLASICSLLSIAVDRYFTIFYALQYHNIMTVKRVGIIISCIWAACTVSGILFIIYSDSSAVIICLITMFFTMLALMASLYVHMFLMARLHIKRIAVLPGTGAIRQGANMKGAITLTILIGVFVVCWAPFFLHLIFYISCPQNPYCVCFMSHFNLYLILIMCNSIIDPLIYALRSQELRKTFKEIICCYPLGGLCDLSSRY
Experiment: 125I-NDP-α-MSH competition, hMC4-R membranes
Square brackets hold non-standard residues; d marks the D form. Ends that are not written are not given here. Nle = CCCC[C@H](N)C(=O)O
# % Inhibition at 1 µM values compiled below
Respond numerically; units are % and should not be typed.

Worked cases, answers included:
{"columns": ["BINDER", "UNIT SYMBOL", "% Inhibition at 1 µM"],
 "data": [
  ["YVXGHFRWDRFC (not fully specified; Nle 3; C-terminal amide; Re complexed at Cys 12) [metallopeptide 4-1]", "%", 36],
  ["Ac-SYS[Nle]EHFRWGKG[dC]V-NH2 (also: oxorhenium(V) N3S1 chelate at D-Cys13) [metallopeptide 2-2]", "%", 28],
  ["Ac-SYS[Nle]EH[dC]FRWGKPV-NH2 (also: oxorhenium(V) N3S1 chelate at D-Cys 7) [metallopeptide 2-8]", "%", 25],
  ["Ac-SYS[Nle][dC]EHFRWGKPV-NH2 (also: oxorhenium(V) N3S1 chelate at D-Cys5) [metallopeptide 2-10]", "%", 18],
  ["Ac-SYS[Nle]EHFR[dC]WGKPV-NH2 (also: oxorhenium(V) N3S1 chelate at D-Cys9) [metallopeptide 2-6]", "%", 6]
]}

Sure, the documented % Inhibition at 1 µM for Ac-SYS[Nle]EHFRWG[dC]KPV-NH2 (also: oxorhenium(V) N3S1 chelate at D-Cys11) [metallopeptide 2-4] is 40

Sure, the documented % Inhibition at 1 µM for YVXGHFRWDRF (Nle 3; C-terminal amide, not complexed to Re) [[Nle3]-γ-MSH parent polypeptide Tyr-Val-Nle-Gly-His-Phe-Arg-Trp-Asp-Arg-Phe-NH2] is 58

Sure, the documented % Inhibition at 1 µM for SYSXEHFRWGKGVC (N-terminal acetyl; Nle 4 (X in letters); D-Cys 14; C-terminal amide; Re complexed at D-Cys 14) [metallopeptide 2-1] is 46

Sure, the documented % Inhibition at 1 µM for Ac-SYS[Nle]EHF[dC]RWGKPV-NH2 (also: oxorhenium(V) N3S1 chelate at D-Cys8) [metallopeptide 2-7] is 6

Sure, the documented % Inhibition at 1 µM for Ac-SYS[Nle]E[dC]HFRWGKPV-NH2 (also: oxorhenium(V) N3S1 chelate at D-Cys 6) [metallopeptide 2-9] is 35

Sure, the documented % Inhibition at 1 µM for Ac-SYS[dC][Nle]EHFRWGKPV-NH2 (also: oxorhenium(V) N3S1 chelate at D-Cys4) [metallopeptide 2-11] is 37

Sure, the documented % Inhibition at 1 µM for YV[Nle]GHFRWDCRF-NH2 (also: oxorhenium(V) N3S1 chelate: C10 SG + backbone N of W8, D9, C10, bridge at 10 via Re(V)=O, other end not in the chain) [metallopeptide 4-3] is 23

Sure, the documented % Inhibition at 1 µM for YV[Nle]GHFRWDRCF-NH2 (also: oxorhenium(V) N3S1 chelate: C11 SG + backbone N of D9, R10, C11, bridge at 11 via Re(V)=O, other end not in the chain) [metallopeptide 4-2] is 23
